Experimental target: Aldo-keto reductase family 1 member C1 (Homo sapiens)
Sequence (Q04828 whole entry): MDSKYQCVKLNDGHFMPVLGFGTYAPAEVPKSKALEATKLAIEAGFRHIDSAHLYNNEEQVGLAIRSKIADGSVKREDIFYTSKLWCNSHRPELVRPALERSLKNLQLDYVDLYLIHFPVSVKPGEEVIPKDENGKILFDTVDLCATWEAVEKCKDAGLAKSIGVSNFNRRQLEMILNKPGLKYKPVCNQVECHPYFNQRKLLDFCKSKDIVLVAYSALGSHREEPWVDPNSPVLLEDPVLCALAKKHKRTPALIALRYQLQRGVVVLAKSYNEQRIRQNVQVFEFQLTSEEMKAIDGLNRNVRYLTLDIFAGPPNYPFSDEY
Protocol summary: Inhibition of AKR1C1 (unknown origin) using 9,10-phenanthrenequinone as substrate

Molecular string | Display unit | IC50
COc1ccc2c(c1)c(CC(=O)O)c(C)n2C(=O)c1ccc(Cl)cc1 | µM | 96

* * *

Experimental target: UniProt:P42330
Protocol summary: Inhibition of human AKR1C3 expressed in Escherichia coli incubated for 30 mins in presence of NADPH regeneration system by UHPLC method based Lineweaver-Burk double-reciprocal plot analysis

Molecular string | Ki
Nc1cc(C(F)(F)F)c(-c2cc(N3CCOCC3)nc(N3CCOCC3)n2)cn1 | 14 µM

* * *

Experimental target: Aldo-keto reductase family 1 member C2 (Homo sapiens, UniProt P52895)
Sequence (P52895 whole entry): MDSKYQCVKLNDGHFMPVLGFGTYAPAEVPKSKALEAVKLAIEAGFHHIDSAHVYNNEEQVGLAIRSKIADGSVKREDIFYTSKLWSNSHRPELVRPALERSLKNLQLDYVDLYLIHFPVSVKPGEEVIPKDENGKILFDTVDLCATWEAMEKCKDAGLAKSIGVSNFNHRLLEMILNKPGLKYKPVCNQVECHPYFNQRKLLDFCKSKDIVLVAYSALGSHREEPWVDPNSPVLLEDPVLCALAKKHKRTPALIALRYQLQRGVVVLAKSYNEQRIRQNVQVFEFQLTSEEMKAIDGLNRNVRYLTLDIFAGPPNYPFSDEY
Protocol summary: Inhibition of N-terminal His-tagged human AKR1C2 expressed in Escherichia coli BL21 ([…] Plus) competent cells using 9,10 -Phenanthrenequinone as substrate in presence of NADPH by fluorescence method
Attribute: IC50

Molecule | IC50 (µM)
O=C(/C=C/c1ccc(O)c(O)c1)OCCc1ccccc1 | 25.8
CCCCCCCCOC(=O)c1cc(O)c(O)c(O)c1 [OCTYL_GALLATE] | 9.28

* * *

Experimental target: UniProtKB Q04828
Sequence (Q04828 whole entry): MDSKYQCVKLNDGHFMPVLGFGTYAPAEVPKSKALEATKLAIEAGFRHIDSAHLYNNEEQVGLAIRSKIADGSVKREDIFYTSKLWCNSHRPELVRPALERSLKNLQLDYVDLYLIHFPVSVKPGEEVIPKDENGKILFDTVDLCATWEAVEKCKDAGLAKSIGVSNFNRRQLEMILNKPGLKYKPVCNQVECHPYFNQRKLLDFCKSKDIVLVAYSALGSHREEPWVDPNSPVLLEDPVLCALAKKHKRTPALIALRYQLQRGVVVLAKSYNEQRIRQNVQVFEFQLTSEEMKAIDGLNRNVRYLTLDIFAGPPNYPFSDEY
Protocol summary: Inhibition of N-terminal His-tagged human AKR1C1 expressed in Escherichia coli BL21 ([…] Plus) competent cells using 9,10 -Phenanthrenequinone as substrate in presence of NADPH by fluorescence method
pIC50: −log10 of the molar value.
Attribute: pIC50

Molecule | pIC50
O=C(/C=C/c1ccc(O)c(O)c1)OCCc1ccccc1 [CAFFEIC ACID PHENETHYL ESTER] | 4.53
CCCCCCCCOC(=O)c1cc(O)c(O)c(O)c1 [OCTYL_GALLATE] | 5.26

* * *

Experimental target: Aldo-keto reductase family 1 member C3 (Homo sapiens)
Sequence (P42330 whole entry): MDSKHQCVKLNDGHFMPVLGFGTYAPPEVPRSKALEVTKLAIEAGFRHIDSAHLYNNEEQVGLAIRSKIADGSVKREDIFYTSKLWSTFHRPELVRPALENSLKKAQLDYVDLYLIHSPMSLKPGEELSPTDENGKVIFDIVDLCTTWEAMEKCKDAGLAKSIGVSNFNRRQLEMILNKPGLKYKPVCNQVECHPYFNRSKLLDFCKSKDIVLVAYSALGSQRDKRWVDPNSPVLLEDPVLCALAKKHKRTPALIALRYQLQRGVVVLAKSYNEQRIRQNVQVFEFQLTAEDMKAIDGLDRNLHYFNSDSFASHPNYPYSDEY
Protocol summary: Inhibition of AKR1C3 (unknown origin) using 4-androstene-3,17-dione as substrate
Quantity kind: IC50

Molecular string | Recorded result
COc1ccc2c(c1)c(CCNC(C)=O)cn2C(=O)c1ccc(Cl)cc1 | 11.4 µM

* * *

Experimental target: Aldo-keto reductase family 1 member C3 (Homo sapiens, UniProt P42330)
Protocol summary: Inhibition of N-terminal His-tagged human AKR1C3 expressed in Escherichia coli BL21 ([…] Plus) competent cells using 9,10 -Phenanthrenequinone as substrate in presence of NADPH by fluorescence method
Attribute: IC50

Compound | Experimental target | IC50 [µM]
O=C(/C=C/c1ccc(O)c(O)c1)OCCc1ccccc1 | Aldo-keto reductase family 1 member C3 (Homo sapiens, UniProt P42330) | 3.71
CCCCCCCCOC(=O)c1cc(O)c(O)c(O)c1 [OCTYL_GALLATE] | Aldo-keto reductase family 1 member C3 (Homo sapiens, UniProt P42330) | 2.56

* * *

Experimental target: Aldo-keto reductase family 1 member C1 (Homo sapiens)
Sequence (Q04828 whole entry): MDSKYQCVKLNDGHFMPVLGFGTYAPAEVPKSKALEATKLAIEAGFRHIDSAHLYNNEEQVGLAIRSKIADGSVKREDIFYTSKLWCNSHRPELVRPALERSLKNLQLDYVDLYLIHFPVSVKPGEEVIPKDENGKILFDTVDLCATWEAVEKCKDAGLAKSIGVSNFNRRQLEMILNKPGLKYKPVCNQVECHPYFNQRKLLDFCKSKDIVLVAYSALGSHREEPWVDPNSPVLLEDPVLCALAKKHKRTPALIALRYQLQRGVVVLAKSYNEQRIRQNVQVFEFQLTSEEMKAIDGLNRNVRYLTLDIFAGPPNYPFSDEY
Protocol summary: Inhibition of N-terminal His-tagged human AKR1C1 expressed in Escherichia coli BL21 ([…] Plus) competent cells using 9,10-phenanthrenequinone as substrate in presence of NADPH
pIC50: −log10 of the molar value.
Quantity kind: pIC50

Molecule | Quantity kind | Limit sign | Recorded result
Cc1ccc(S(=O)(=O)NC(=O)NN2CC3CCCC3C2)cc1 (configuration not stated) [GLICLAZIDE] | pIC50 | < | 3.52
CCC1=C(C)CN(C(=O)NCCc2ccc(S(=O)(=O)NC(=O)N[C@H]3CC[C@H](C)CC3)cc2)C1=O [GLIMEPIRIDE] | pIC50 | = | 5.16

* * *

Experimental target: Androgen receptor (Homo sapiens)
Sequence (P10275 whole entry): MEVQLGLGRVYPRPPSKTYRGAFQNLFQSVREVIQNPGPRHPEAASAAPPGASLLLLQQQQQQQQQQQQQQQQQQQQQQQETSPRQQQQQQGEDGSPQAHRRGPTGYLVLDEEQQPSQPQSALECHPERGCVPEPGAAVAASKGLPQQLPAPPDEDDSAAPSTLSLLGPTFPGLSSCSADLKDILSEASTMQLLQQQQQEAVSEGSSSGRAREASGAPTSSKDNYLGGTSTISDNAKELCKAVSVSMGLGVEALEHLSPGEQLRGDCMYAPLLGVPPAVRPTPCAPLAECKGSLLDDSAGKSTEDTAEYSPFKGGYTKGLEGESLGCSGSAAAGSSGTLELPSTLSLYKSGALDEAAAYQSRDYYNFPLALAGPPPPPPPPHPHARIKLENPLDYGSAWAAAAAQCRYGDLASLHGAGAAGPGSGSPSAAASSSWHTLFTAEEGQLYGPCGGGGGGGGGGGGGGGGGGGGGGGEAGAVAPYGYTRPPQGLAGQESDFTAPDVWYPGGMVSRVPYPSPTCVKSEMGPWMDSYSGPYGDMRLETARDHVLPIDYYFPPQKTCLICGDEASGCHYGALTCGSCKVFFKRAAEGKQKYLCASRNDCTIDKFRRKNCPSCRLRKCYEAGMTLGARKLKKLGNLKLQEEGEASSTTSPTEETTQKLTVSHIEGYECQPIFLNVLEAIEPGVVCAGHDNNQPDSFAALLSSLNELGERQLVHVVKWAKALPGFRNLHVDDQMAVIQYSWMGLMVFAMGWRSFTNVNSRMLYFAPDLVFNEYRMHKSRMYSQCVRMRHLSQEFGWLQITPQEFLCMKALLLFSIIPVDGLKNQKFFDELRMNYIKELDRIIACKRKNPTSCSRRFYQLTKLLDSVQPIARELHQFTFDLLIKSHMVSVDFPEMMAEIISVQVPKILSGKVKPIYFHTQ
Protocol summary: Displacement of [3H]-R1881 from androgen receptor (unknown origin) expressed in human HeLa cells harboring AR3A-PSA-(ARE)4-Luc13 incubated for 2 hrs by scintillation counting
Assay type: cell-based
pIC50: −log10 of the molar value.
Quantity kind: pIC50

Molecular string | Experimental target | Recorded result
Oc1ccc2c(O)ncc(-c3cc(F)c(F)c(F)c3)c2c1 | Androgen receptor (Homo sapiens) | 4.10

* * *

Experimental target: UniProtKB P42330
Protocol summary: Inhibition of AKR1C3 (unknown origin) expressed in human HCT116 cells incubated for 2 to 4 hrs by UHPLC analysis
Assay type: cell-based, HCT-116
pIC50: −log10 of the molar value.
Quantity kind: pIC50

Molecule | Recorded result
Nc1cc(C(F)(F)F)c(-c2cc(N3CCOCC3)nc(N3CCOCC3)n2)cn1 [BUPARLISIB] | 5.10

Values were extracted from ChEMBL document CHEMBL4665678.
